Source: patent US9447086B2

# System: HepDE19 cells
# assay_info: Cytotoxicity (CC50) in HepDE19 cells, CCK-8 cell viability
# Type: cell-based
# Description: HepG2.2.15 and HepDE19 are stably-transfected cell lines containing the HBV genome. […] Five days after treatment, cell viability was measured by addition of 20 μL of CCK-8 reagent. Two hours after incubation at 37° C., the absorbance at wavelengths of 450 nm and 630 nm (OD450 and OD630) was recorded by a plate reader.
measurement_name: CC50 (µM)
Unit µM implied. Number only.

Output CC50 of O=C(OCC(F)(F)F)C1=C(CN2CCOC[C@H]2C(=O)O)NC(c2nccs2)=N[C@H]1c1ccc(F)cc1Cl [Example 51]
27

Output CC50 of CCOC(=O)C1=C(CN2CCOC[C@H]2C(=O)O)NC(c2nccs2)=N[C@H]1c1ccc(F)c(F)c1Br [Example 128]
51

Output CC50 of CCOC(=O)C1=C(CN2CCOC[C@H]2C(=O)O)NC(c2nccs2)=N[C@H]1c1ccc(F)c(F)c1Cl [Example 60]
29

Output CC50 of CC(C)OC(=O)C1=C(CN2CCOC[C@H]2C(=O)O)NC(c2nccs2)=N[C@H]1c1ccc(F)cc1Cl [Example 98]
72

Output CC50 of COC(=O)C1=C(CN2CCO[C@H](C(C)C)[C@H]2C(=O)O)NC(c2nccs2)=N[C@H]1c1ccc(F)cc1Cl [Example 120]
81

Output CC50 of CCOC(=O)C1=C(CN2CCOC[C@H]2C(=O)O)NC(c2nccs2)=N[C@H]1c1ccc(F)c(F)c1C [Example 96]
97

Output CC50 of CCOC(=O)C1=C(CN2CCOC[C@H]2C(=O)O)NC(c2nccs2)=N[C@H]1c1ccc(F)cc1 [Example 54]
62

* * *

Give pEC50 for every item shown.
# Tested on: HBV
# assay_info: Anti-HBV activity in vitro in HepG2.2.15 cells (extracellular HBV DNA by qPCR)
# Format: cell-based, Hepatitis B virus
# condition_label: Hepatitis B virus; HepG2.2.15 cells; in-house data; read-out: EC50
The quantity pEC50 is defined as the negative base-10 logarithm of the molar concentration.

Output pEC50 of "CCOC(=O)C1=C(CN2CC(F)(F)C[C@H]2C(=O)O)NC(c2nccn2C)=N[C@H]1c1ccc(F)cc1Cl"
7.74

Output pEC50 of "COC(=O)C1=C(CN2CC(F)(F)C[C@H]2C(=O)O)NC(c2nc(C3CC3)cs2)=N[C@H]1c1ccc(F)cc1Cl"
8.14

Output pEC50 of "CCOC(=O)C1=C(CN2CCOC[C@H]2C(=O)O)NC(c2nccs2)=N[C@H]1c1ccc(Br)cc1"
8.55

Output pEC50 of "COC(=O)C1=C(CN2CC(F)(F)C[C@H]2C(=O)O)NC(c2nccs2)=N[C@H]1c1ccc(Br)cc1Cl"
7.55

Output pEC50 of "CCOC(=O)C1=C(CN2CCOC[C@H]2C(=O)O)NC(c2nccs2)=N[C@H]1c1cccc(F)c1Br"
9.15

Output pEC50 of COC(=O)C1=C(CN2CCOC[C@H]2C(=O)O)NC(c2nc(C)cn2C)=NC1c1ccc(F)cc1Cl (stereo in doubt)
7.85

Output pEC50 of "CCOC(=O)C1=C(CN2CCO[C@H](C)[C@H]2C(=O)O)NC(c2nccs2)=N[C@H]1c1ccccc1Cl"
8.82

Output pEC50 of "COC(=O)C1=C(CN2CC(F)(F)CC[C@H]2C(=O)O)NC(c2nccs2)=N[C@H]1c1cccc(F)c1Cl"
8.36

Output pEC50 of "CCOC(=O)C1=C(CN2CCOC[C@H]2C(=O)O)NC(c2nccs2)=N[C@H]1c1ccc(F)c(F)c1F"
8.34

Output pEC50 of "CCOC(=O)C1=C(CN2CCOC[C@H]2C(=O)O)NC(c2nccs2)=N[C@H]1c1ccc(Br)cc1F"
8.37

Output pEC50 of "CCOC(=O)C1=C(CN2CC(F)(F)CC[C@@H]2C(=O)O)NC(c2nccs2)=N[C@H]1c1ccc(F)cc1Br"
7.74

Output pEC50 of "CCOC(=O)C1=C(CN2CCOC[C@H]2C(=O)O)NC(c2nccs2)=N[C@H]1c1ccccc1Br"
8.17

Output pEC50 of "CCOC(=O)C1=C(CN2CCOC[C@H]2C(=O)O)NC(c2nccs2)=N[C@H]1c1ccc(Cl)c(Br)c1"
7.54

Output pEC50 of "COC(=O)C1=C(CN2CCOC[C@@]2(C)C(=O)O)NC(c2nccs2)=N[C@H]1c1ccc(F)c(F)c1Cl"
7.59

Output pEC50 of "CCOC(=O)C1=C(CN2CCOC[C@H]2C(=O)O)NC(c2nccs2)=N[C@H]1c1ccc(Br)c(F)c1"
8.52

Output pEC50 of "COC(=O)C1=C(CN2CCOC[C@H]2C(=O)O)NC(c2ncoc2C)=N[C@H]1c1ccc(F)cc1Br"
8.12

Output pEC50 of "COC(=O)C1=C(CN2CCOC[C@H]2C(=O)O)NC(c2ncc(F)cc2F)=N[C@H]1c1ccc(F)cc1Cl"
8.12

Output pEC50 of "CCOC(=O)C1=C(CN2CC(F)(F)CC[C@H]2C(=O)O)NC(c2nccs2)=N[C@H]1c1ccc(F)cc1Br"
8.82

Output pEC50 of "COC(=O)C1=C(CN2CCOC[C@H]2C(=O)O)NC(c2nc(C(F)(F)F)cs2)=N[C@H]1c1ccc(F)cc1Cl"
8.60

Output pEC50 of "CCOC(=O)C1=C(CN2CCOC[C@H]2C(=O)O)NC(c2nccn2C)=N[C@H]1c1ccc(F)cc1Cl"
8.11

Output pEC50 of "CCOC(=O)C1=C(CN2CC(F)(F)C[C@H]2C(=O)O)NC(c2nccs2)=N[C@H]1c1ccc(Br)cc1"
8.22

Output pEC50 of "CC(C)OC(=O)C1=C(CN2CCOC[C@H]2C(=O)O)NC(c2nccs2)=N[C@H]1c1ccc(F)c(F)c1"
7.46

Output pEC50 of "COC(=O)C1=C(CN2CC(F)(F)C[C@H]2C(=O)O)NC(c2nccs2)=N[C@H]1c1ccc(Cl)cc1Cl"
8.21

Output pEC50 of "[2H]C1([2H])[C@@H](C(=O)O)N(CC2=C(C(=O)OC)[C@H](c3ccc(F)cc3Cl)N=C(c3nccs3)N2)CC1(F)F"
8.24

Output pEC50 of "CCOC(=O)C1=C(CN2CCOC[C@H]2C(=O)O)NC(c2nccs2)=N[C@H]1c1ccc(F)c(F)c1"
8.00

Output pEC50 of "CCOC(=O)C1=C(CN2CCOC[C@H]2C(=O)O)NC(c2nccs2)=N[C@H]1c1ccccc1Cl"
7.85

Output pEC50 of "COC(=O)C1=C(CN2CCOC[C@H]2C(=O)O)NC(c2nccs2)=N[C@H]1c1ccc(F)c(F)c1Cl"
8.92

Output pEC50 of "CCOC(=O)C1=C(CN2CCOC[C@H]2C(=O)O)NC(c2nccn2C)=N[C@H]1c1ccc(F)c(F)c1"
7.82

* * *

# Test system: HBV
# assay_info: Anti-HBV activity in vitro in HepG2.2.15 cells (extracellular HBV DNA by qPCR)
# Format: cell-based, Hepatitis B virus
# condition_label: Hepatitis B virus; HepG2.2.15 cells; in-house data; read-out: EC50
measurement_name: EC50 (nM)
Unit nM implied. Number only.

Enter recorded EC50 with HBV for "CCOC(=O)C1=C(CN2CCOC[C@H]2C(=O)O)NC(c2nccs2)=N[C@H]1c1cccc(F)c1F" here.
8.9

Enter recorded EC50 with HBV for COC(=O)C1=C(CN2CCSCC2C(=O)O)NC(c2nccs2)=N[C@H]1c1ccc(F)cc1Cl (stereo in doubt) here.
38

Enter recorded EC50 with HBV for "CCOC(=O)C1=C(CN2CCOC[C@H]2C(=O)O)NC(c2nccs2)=N[C@H]1c1ccc(F)c(F)c1Br" here.
0.6

Enter recorded EC50 with HBV for "COC(=O)C1=C(CN2CC(F)(F)C[C@H]2C(=O)O)NC(c2nccs2)=N[C@H]1c1ccc(F)cc1Cl" here.
2.7

Enter recorded EC50 with HBV for "CCOC(=O)C1=C(CN2CCOC[C@H]2C(=O)O)NC(c2nccn2C)=N[C@H]1c1cccc(F)c1Cl" here.
5

Enter recorded EC50 with HBV for "COC(=O)C1=C(CN2CCOC[C@H]2C(=O)O)NC(c2ncoc2C)=N[C@H]1c1cccc(F)c1Cl" here.
15

Enter recorded EC50 with HBV for "CCOC(=O)C1=C(CN2CCOC[C@H]2C(=O)O)NC(c2nccs2)=N[C@H]1c1cc(F)cc(Cl)c1" here.
30

Enter recorded EC50 with HBV for "COC(=O)C1=C(CN2CCOC[C@H]2C(=O)O)NC(c2nccs2)=N[C@H]1c1ccc(Br)cc1F" here.
20

Enter recorded EC50 with HBV for "COC(=O)C1=C(CN2CCOC[C@H]2C(=O)O)NC(c2nccs2)=N[C@H]1c1ccc(Br)c(F)c1F" here.
28

Enter recorded EC50 with HBV for "CCOC(=O)C1=C(CN2CC(F)(F)C[C@H]2C(=O)O)NC(c2nccs2)=N[C@H]1c1ccc(F)cc1F" here.
13

Enter recorded EC50 with HBV for "COC(=O)C1=C(CN2CC(F)(F)C[C@H]2C(=O)O)NC(c2ccc(F)cc2F)=N[C@H]1c1ccc(F)cc1Cl" here.
23

Enter recorded EC50 with HBV for "CCOC(=O)C1=C(CN2CCOC[C@H]2C(=O)O)NC(c2nccs2)=N[C@H]1c1ccccc1I" here.
7.6

Enter recorded EC50 with HBV for "COC(=O)C1=C(CN2C[C@H](C(=O)O)CC(F)(F)C2)NC(c2nc(C)cs2)=N[C@H]1c1ccc(F)cc1Cl" here.
27

Enter recorded EC50 with HBV for "CCOC(=O)C1=C(CN2CCOC[C@H]2C(=O)O)NC(c2nccs2)=N[C@H]1c1ccc(Cl)cc1F" here.
4.7

Enter recorded EC50 with HBV for "CCOC(=O)C1=C(CN2CC(F)(F)C[C@H]2C(=O)O)NC(c2nccs2)=N[C@H]1c1ccc(Cl)cc1Cl" here.
3.3
